The reported measurements were obtained from paper PMC6857474.

Assay: Stability in mouse plasma at 37°C
Type: in vitro ADME
Settings: heparinized mouse plasma, time 0.5 h, read-out: Stability [% of T0]
Non-standard residues stand in square brackets, D forms with d. Residues, ends and D or L forms follow the SMILES beside them. Dmt = Cc1cc(O)cc(C)c1C[C@H](N)C(=O)O
parameter: remaining at 0.5 h, 1 µM (%)
# value in %; strip the unit string

Which value of remaining at 0.5 h, 1 µM has been reported for Cc1cc(O)cc(C)c1C[C@H](NC(=O)[C@@H](CCCNC(=N)N)NC(=O)[C@@H](N)CCC(=O)O)C(=O)N[C@@H](CCCCN)C(=O)N[C@@H](Cc1ccccc1)C(N)=O [α-Glu-SS-31, H-Glu-D-Arg-DMT-Lys-Phe-NH 2 .2TFA] (H-E[dR][Dmt]KF-NH2) in the records?
68.5

Next: Cc1cc(O)cc(C)c1C[C@H](NC(=O)[C@H](N)CCCNC(=N)N)C(=O)N[C@@H](CCCCN)C(=O)N[C@@H](Cc1ccccc1)C(N)=O [SS-31, D-Arg-dimethylTyr-Lys-Phe-NH2] (H-[dR][Dmt]KF-NH2)
89.3
